Hey, just so you know, these numbers are from ChEMBL document CHEMBL3407340.

assay: Drug metabolism in Wistar rat plasma assessed as parent compound remaining at 115 to 163 MBq, iv after 10 mins; type: ADME, organism-based; conditions: read-out: Stability
QUANTITY_KIND: remaining at 10 min (%)
Your answer is read as %, so omit the unit and give the number.

remaining at 10 min reading for CCOCCn1cc(C(=O)NC23CC4CC(CC(C4)C2)C3)c(=O)c2cccc(O[11CH3])c21 : 55

###

assay: Partition coefficient, log D of the compound in n-octanol/phosphate buffer at pH 7.4 after 15 mins by shake flask method; format: physicochemical
QUANTITY_KIND: logD at 0.25 h
Provide a numeric answer; units are not to be included.

logD at 0.25 h reading for CCOCCn1cc(C(=O)NC23CC4CC(CC(C4)C2)C3)c(=O)c2cccc(O[11CH3])c21 : 2.78
